Target: His-tagged KRAS G12D protein (Homo sapiens (Human), UniProt P01116, G12D)
Sequence (P01116 other isoform, or with tags, fused parts or gaps G12D): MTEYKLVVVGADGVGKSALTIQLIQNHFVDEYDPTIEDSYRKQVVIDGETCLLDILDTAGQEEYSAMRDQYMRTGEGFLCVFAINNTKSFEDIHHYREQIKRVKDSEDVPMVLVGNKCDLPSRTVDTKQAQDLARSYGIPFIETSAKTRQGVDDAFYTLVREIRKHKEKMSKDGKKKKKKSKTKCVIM
Experiment: KRAS G12D TR-FRET Assay
Type: binding
Details: read-out: KRAS G12D Binding IC50
Measurement Type: IC50 (nM)

Completed entries (count: 5):
{"Compound": "CN1[C@H](COc2nc3c4cnc(c(F)c4n2)-c2c(c(Cl)cc4[nH]ncc24)CCCOC(=O)O[C@@H]2COCCN3C2)C[C@@H]2C[C@@H]21 [Example 330]", "Recorded Number": 4}
{"Compound": "Cc1cc2[nH]ncc2c2c1CCCCCO[C@@H]1CCCN(C1)c1nc(OC[C@@]34CCCN3C[C@H](F)C4)nc3c(F)c-2ncc13 [Example 132]", "Recorded Number": 70}
{"Compound": "O=C1OCCC2CCc3cc4[nH]ncc4c(c32)-c2ncc3c(nc(OC[C@@]45CCCN4C[C@H](F)C5)nc3c2F)N2CCC[C@H](C2)O1 (stereo partly shown) [Example 125]", "Recorded Number": 9}
{"Compound": "O=C1CCCCc2c(Cl)cc3[nH]ncc3c2-c2ncc3c(nc(OC[C@@]45CCCN4C[C@H](F)C5)nc3c2F)N2CC[C@H]3CCN1[C@H]3C2 [Example 62]", "Recorded Number": 3}
{"Compound": "O=C1N[C@@H]2C[C@H](O)CN(C2)c2nc(OC[C@@]34CCCN3C[C@H](F)C4)nc3c(F)c(ncc23)-c2c(c(Cl)cc3[nH]ncc23)CCCO1 [Example 284]", "Recorded Number": 5}

[a] Cc1nc2c3cnc(c(F)c3n1)-c1c(c(C)cc3[nH]ncc13)[C@H]1C[C@H]1COC(=O)O[C@@H]1CCCN2C1 [Example 211]
[b] O=C1OCCc2c(Cl)cc3[nH]ncc3c2-c2ncc3c(nc(OC[C@@]45CCCN4C[C@H](F)C5)nc3c2F)N2CCO[C@]3(C2)C[C@H](C3)O1 [Example 248]
[c] Fc1c2ncc3c(nc(OC[C@@]45CCCN4C[C@H](F)C5)nc13)N1CCO[C@@H](COCCOCc3c(Cl)cc4[nH]ncc4c3-2)C1 [Example 152]
[d] Cc1cc2[nH]ncc2c2c1CCCCC(=O)N[C@H]1CN(C[C@H]3C[C@H]31)c1nc(OC[C@@]34CCCN3C[C@H](F)C4)nc3c(F)c-2ncc13 [Example 171]
Problem: Rank entries according to their IC50, from the largest number down. Put the labels in the requested order and write them down.
Solution: a, c, d, b

* * *

Target: His-tagged KRAS G12D protein (Homo sapiens (Human), UniProt P01116, G12D)
Test: KRAS G12D TR-FRET Assay
Type: binding
Conditions: read-out: KRAS G12D Binding IC50
pIC50: −log10 of the molar value.
Measurement Type: pIC50

Completed entries (count: 3):
{"Compound": "CN1CCC(Oc2nc3c4cnc(c(F)c4n2)-c2c(c(Cl)cc4[nH]ncc24)CCCOC(=O)O[C@@H]2COCCN3C2)CC1.O=C(O)C(F)(F)F [Example 370, trifluoroacetate]", "Measurement Type": "pIC50", "Recorded Number": 7.44}
{"Compound": "Cc1cc2[nH]ncc2c2c1CCCCC(=O)N[C@@H]1CCCN(C1)c1nc(OC[C@@]34CCCN3C[C@H](F)C4)nc3c(F)c-2ncc13.O=C(O)C(F)(F)F [Example 48, 2,2,2-trifluoroacetate]", "Measurement Type": "pIC50", "Recorded Number": 7.85}
{"Compound": "Cc1cc2[nH]ncc2c2c1CCOC(=O)OC[C@@H]1CCCN(C1)c1nc(OC[C@@]34CCCN3C[C@H](F)C4)nc3c(F)c-2ncc13 [Example 126, bis(2,2,2-trifluoroacetate)]", "Measurement Type": "pIC50", "Recorded Number": 8.70}

[a] CC(=O)n1ncc2c3c(c(Cl)cc21)CCCOC(=O)O[C@@H]1COCCN(C1)c1nc(OC[C@@]24CCCN2C[C@H](F)C4)nc2c(F)c-3ncc12
[b] O=C1OCCCc2c(Cl)cc3[nH]ncc3c2-c2cc3nc(OC[C@@]45CCCN4C[C@H](F)C5)nc(c3cn2)N2CCOC[C@H](C2)O1
Problem: Dear colleague, could you let me know whether a or b has the lower recorded pIC50? Thanks. Your choice should be expressed through its label.
Solution: a
